System: ABUTILON THEOPHRASTI, MEDIC.
EXPERIMENT DESCRIPTION: Preemergence herbicidal evaluation, ABUTH (Velvetleaf)
Assay type: in vivo
Parameters: key: visual rating scale 0-9 vs control
TEST PARAMETERS: Rate 0.500 kg/ha, rated four to five weeks after treatment
From the text: Results of herbicide evaluation are expressed on a rating scale (0-9). The scale is based upon a visual observation of plant stand, vigor, malformation, size, chlorosis and overall plant appearance as compared with a control. […]

| COMPOUND | ABUTH |
| --- | --- |
| C#CCn1c(=O)n(C)c(=O)n(-c2cc(N3C(=O)C4=C(CCCC4)C3=O)c(F)cc2Cl)c1=O | 9.0 |
| C=CCn1c(=O)n(C)c(=O)n(-c2cc(N3C(=O)C4=C(CCCC4)C3=O)c(F)cc2Cl)c1=O | 9.0 |
| C=CCn1c(=O)[nH]c(=O)n(-c2cc(N3C(=O)C4=C(CCCC4)C3=O)c(F)cc2Cl)c1=O | 0.0 |
| CC(C)OC(=O)Cn1c(=O)n(C)c(=O)n(-c2cc(N=c3sc(=O)n4n3CCCC4)c(F)cc2Cl)c1=O | 9.0 |
| CC(C)OC(=O)Cn1c(=O)n(C)c(=O)n(-c2cc(N3C(=O)C4C[S+]([O-])CCN4C3=O)c(F)cc2Cl)c1=O (centres unmarked) | 4.0 |
